A450 listing for selected binders.
Target: T1, Mouse Id1: Histidine (mouse, UniProt P20067-2 1-148, limits assumed)
T1 construct: Fusion protein made in E. coli from vector pGW07; also called m-Id1-His; not shown: His tag
T1 sequence (looked up): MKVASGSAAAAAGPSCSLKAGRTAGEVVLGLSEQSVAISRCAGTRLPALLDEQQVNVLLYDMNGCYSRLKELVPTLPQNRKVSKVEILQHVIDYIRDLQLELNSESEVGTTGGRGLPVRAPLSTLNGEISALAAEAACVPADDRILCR
Test: ELISA, Ab 0.100 µg/ml
// return numeric value only (unit: A450, not printed)

Reference set (4 entries):
>  <binder>
rabbit monoclonal anti-mouse/human Id3, clone #BCH-4/#6-1 (antibody, V domains shown, Rabbit IgG from a rabbit hybridoma; also called m/h Id3 MoAb 6-1) VH: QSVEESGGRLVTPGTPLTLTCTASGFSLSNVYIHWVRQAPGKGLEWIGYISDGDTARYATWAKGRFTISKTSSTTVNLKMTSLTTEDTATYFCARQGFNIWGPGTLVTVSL VL: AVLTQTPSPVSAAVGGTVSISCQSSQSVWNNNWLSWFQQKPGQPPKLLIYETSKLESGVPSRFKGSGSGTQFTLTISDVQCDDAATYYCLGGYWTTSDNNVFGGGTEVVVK

>  <A450 [A450]>
0.049

$$$$
>  <binder>
rabbit monoclonal anti-mouse/human Id3, clone #BCH-4/#42-1 (antibody, V domains shown, Rabbit IgG from a rabbit hybridoma; also called m/h Id3 MoAb 42-1) VH: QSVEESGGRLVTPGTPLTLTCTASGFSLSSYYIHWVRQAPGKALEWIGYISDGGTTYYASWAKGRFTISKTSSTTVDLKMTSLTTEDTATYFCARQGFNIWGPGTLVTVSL VL: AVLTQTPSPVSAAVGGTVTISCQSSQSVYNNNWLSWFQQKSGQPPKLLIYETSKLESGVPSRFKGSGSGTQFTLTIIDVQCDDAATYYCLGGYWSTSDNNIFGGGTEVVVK

>  <A450 [A450]>
0.049

$$$$
>  <binder>
rabbit monoclonal anti-mouse/human Id3, clone #BCH-4/#16-1 (antibody, V domains shown, Rabbit IgG from a rabbit hybridoma; also called m/h Id3 MoAb 16-1) VH: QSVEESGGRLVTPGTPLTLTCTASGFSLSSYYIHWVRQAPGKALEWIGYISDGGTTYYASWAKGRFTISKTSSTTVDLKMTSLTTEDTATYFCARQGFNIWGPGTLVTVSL VL: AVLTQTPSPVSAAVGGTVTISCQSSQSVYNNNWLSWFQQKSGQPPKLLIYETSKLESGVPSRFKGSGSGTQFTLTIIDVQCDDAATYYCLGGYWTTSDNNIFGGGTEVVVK

>  <A450 [A450]>
0.047

$$$$
>  <binder>
rabbit monoclonal anti-human Id3, clone #BCH-4/#3-3 (antibody, V domains shown, Rabbit IgG from a rabbit hybridoma; also called h Id3 MoAb 3-3) VH: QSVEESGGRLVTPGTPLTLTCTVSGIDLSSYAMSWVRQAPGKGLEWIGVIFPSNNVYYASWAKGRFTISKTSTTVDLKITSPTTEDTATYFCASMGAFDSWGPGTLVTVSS VL: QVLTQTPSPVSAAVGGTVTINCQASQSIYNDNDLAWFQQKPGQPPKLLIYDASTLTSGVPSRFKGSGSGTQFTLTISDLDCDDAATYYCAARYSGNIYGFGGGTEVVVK

>  <A450 [A450]>
0.047

$$$$

Field: next binder
Documented A450 of rabbit monoclonal anti-mouse/human Id3, clone #BCH-4/#17-3 (antibody, V domains shown, Rabbit IgG from a rabbit hybridoma; also called m/h Id3 MoAb 17-3; BCH-3/#17-3) VH: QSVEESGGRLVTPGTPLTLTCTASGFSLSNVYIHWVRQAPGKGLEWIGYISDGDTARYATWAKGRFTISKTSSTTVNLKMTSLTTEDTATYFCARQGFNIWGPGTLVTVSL VL: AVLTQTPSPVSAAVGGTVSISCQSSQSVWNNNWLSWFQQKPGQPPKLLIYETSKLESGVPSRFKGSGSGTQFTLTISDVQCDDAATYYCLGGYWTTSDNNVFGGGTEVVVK : 0.051

Hey, just so you know, these numbers are from patent US20070178531A1.
